Each item that follows carries a reported Percent inward current inhibition.
- Tested on: voltage-dependent cation channel
- measurement_description: Whole-cell recording of inward current in isolated olfactory receptor cells
- Format: cell-based, Cynops pyrrhogaster
- condition_notes: values calculated in the experiments of Example 1, repeated in Table 3
recorded_endpoint: Percent inward current inhibition

molecule="CCOC(=O)C12CCCC1C1CCC2C1 (stereo not drawn)" recorded_endpoint="Percent inward current inhibition" reported_measurement=11.6%
molecule="C=CC(C)(CCC=C(C)C)OC(C)=O (stereo not drawn) [Linalyl acetate]" recorded_endpoint="Percent inward current inhibition" reported_measurement=43.3%
molecule="O=Cc1ccccc1 [Benzaldehyde]" recorded_endpoint="Percent inward current inhibition" reported_measurement=95.4%
molecule="O=C(OCc1ccccc1)c1ccccc1 [Benzyl benzoate]" recorded_endpoint="Percent inward current inhibition" reported_measurement=10.7%
molecule="CC1=CC(C)C(C=O)CC1 (stereo not drawn)" recorded_endpoint="Percent inward current inhibition" reported_measurement=79.9%
molecule="OCCc1ccccc1 [β-Phenylethyl alcohol]" recorded_endpoint="Percent inward current inhibition" reported_measurement=82.6%
molecule="C/C=C/C(=O)C1=C(C)CCCC1(C)C [β-Damascone]" recorded_endpoint="Percent inward current inhibition" reported_measurement=56.1%
molecule="CC(C)=CCC/C(C)=C/CO [Geraniol]" recorded_endpoint="Percent inward current inhibition" reported_measurement=90.1%
molecule="CC12CCC(CC1)C(C)(C)O2 [1,8-Cineole]" recorded_endpoint="Percent inward current inhibition" reported_measurement=46.5%

###

- System: voltage-dependent cation channel
- measurement_description: Whole-cell recording of inward current in isolated olfactory receptor cells
- Type: cell-based, Cynops pyrrhogaster
- condition_notes: values calculated in the experiments of Example 1, repeated in Table 3
recorded_endpoint: Percent inward current inhibition (%)

compound=CC(C)=CCCC(C)=CC=O system_under_test="voltage-dependent cation channel" recorded_endpoint="Percent inward current inhibition" output_unit=% reported_measurement=110.6
compound="CC(=O)OC1CCCCC1C(C)(C)C (centres unmarked) [o-tert-Butylcyclohexyl acetate]" system_under_test="voltage-dependent cation channel" recorded_endpoint="Percent inward current inhibition" output_unit=% reported_measurement=23.8
compound="C=CC(C)CCCC(C)(C)O (centres unmarked) [Dihydromyrcenol]" system_under_test="voltage-dependent cation channel" recorded_endpoint="Percent inward current inhibition" output_unit=% reported_measurement=109.0
compound="C=CC(C)(O)CCC=C(C)C (centres unmarked)" system_under_test="voltage-dependent cation channel" recorded_endpoint="Percent inward current inhibition" output_unit=% reported_measurement=106.5
compound="CC(C)(O)CCCC1=CCC(C=O)CC1 (centres unmarked)" system_under_test="voltage-dependent cation channel" recorded_endpoint="Percent inward current inhibition" output_unit=% reported_measurement=35.7
compound="CC/C=C\\CCO [cis-3-Hexenol]" system_under_test="voltage-dependent cation channel" recorded_endpoint="Percent inward current inhibition" output_unit=% reported_measurement=78.7
compound="CCOC(=O)C(C)C1CCCCC1 (centres unmarked) [Ethyl 2-cyclohexylpropionate]" system_under_test="voltage-dependent cation channel" recorded_endpoint="Percent inward current inhibition" output_unit=% reported_measurement=48.7
compound="CC(=O)OCCC(C)C [Isoamyl acetate]" system_under_test="voltage-dependent cation channel" recorded_endpoint="Percent inward current inhibition" output_unit=% reported_measurement=92.0
compound="CCC(O)COC1CCCCC1C(C)(C)C (centres unmarked)" system_under_test="voltage-dependent cation channel" recorded_endpoint="Percent inward current inhibition" output_unit=% reported_measurement=27.1
compound="CC(C=O)Cc1ccc(C(C)(C)C)cc1 (stereo not drawn) [p-tert-Butyl-α-methylhydrocinnamaldehyde]" system_under_test="voltage-dependent cation channel" recorded_endpoint="Percent inward current inhibition" output_unit=% reported_measurement=57.9
compound=COc1ccc(C=O)cc1 system_under_test="voltage-dependent cation channel" recorded_endpoint="Percent inward current inhibition" output_unit=% reported_measurement=89.3
